Source of measurements: BigSolDB 2.1

Conditions: in methanol, 308.15 K
assay.endpoint: solubility (mole fraction)
// no unit, no text: just the number

*Q* Report solubility (mole fraction) for CO[C@@]1(NC(=O)Cc2cccs2)C(=O)N2C(C(=O)O)=C(COC(N)=O)CS[C@@H]21
*A* 0.0149

* * *

Conditions: in methanol, 278.15 K
assay.endpoint: solubility (mole fraction)
// return just the number, without any unit appended

*Q* Identify measured solubility (mole fraction) corresponding to CO[C@@]1(NC(=O)Cc2cccs2)C(=O)N2C(C(=O)O)=C(COC(N)=O)CS[C@@H]21
*A* 0.00565

* * *

Settings: in n-propanol, 283.15 K
assay.endpoint: solubility (mole fraction)
Answer field: number only, no words.

*Q* In one line, give reported solubility (mole fraction) of the entry CO[C@@]1(NC(=O)Cc2cccs2)C(=O)N2C(C(=O)O)=C(COC(N)=O)CS[C@@H]21 .
*A* 0.000253

* * *

Conditions: in ethyl acetate, 298.15 K
assay.endpoint: solubility (mole fraction)
Just the number.

*Q* Identify solubility (mole fraction) associated with the molecule CO[C@@]1(NC(=O)Cc2cccs2)C(=O)N2C(C(=O)O)=C(COC(N)=O)CS[C@@H]21
*A* 0.000282

* * *

Conditions: in n-propanol, 288.15 K
assay.endpoint: solubility (mole fraction)

*Q* Report measured solubility (mole fraction); entry is CO[C@@]1(NC(=O)Cc2cccs2)C(=O)N2C(C(=O)O)=C(COC(N)=O)CS[C@@H]21
*A* 0.000286

* * *

Conditions: in acetonitrile, 293.15 K
assay.endpoint: solubility (mole fraction)
I'd appreciate a reply containing only the number, no unit.

*Q* # return recorded solubility (mole fraction) for input CO[C@@]1(NC(=O)Cc2cccs2)C(=O)N2C(C(=O)O)=C(COC(N)=O)CS[C@@H]21
*A* 0.00058

* * *

Conditions: in ethanol, 308.15 K
assay.endpoint: solubility (mole fraction)
Please give the numeric answer without any surrounding text.

*Q* Given the molecule CO[C@@]1(NC(=O)Cc2cccs2)C(=O)N2C(C(=O)O)=C(COC(N)=O)CS[C@@H]21 , write its reported solubility (mole fraction).
*A* 0.00118
